# credit: PubChem BioAssay (NCI)

# System: NCI-H23 lung
# experiment: NCI tumour cell line growth inhibition, 48 h; in the data active = GI50 below about 0.43 µM; inactive = the rest
Log the outcome using a class from yes (1) for active, no (0) for inactive

Give the logged outcome of this assay for the following compound: COc1cc(C=NCC(=O)CSC(c2ccccc2)c2ccccc2)ccc1O
no (0)

Field: outcome | Entry: COc1cc(N)c(Cl)cc1C(=O)N[C@@H]1CCN(CCCOc2ccc(F)cc2)C[C@@H]1OC
no (0)

What did the test return for O=C(NCc1cn(Cc2cccc(Oc3ccccc3)c2)nn1)c1cccnc1NCc1ccc(Cl)cc1 ?
no (0)

Please indicate how the test categorized CN(C)CCN=c1nc2c(c(N)n1-c1ccccc1)c(=S)n(-c1ccccc1)c(=S)n2-c1ccccc1 .
no (0)

Write down the call the test reported for this compound. Item: COc1ccc2c(CN3CCCC[C@H]3O)cc3cc4c(cc3c2c1)OCO4
no (0)

// return assay outcome for CC(C)=CC(=O)OC1C2C(C)=CC(=O)C(O)C2(C)C2C3(O)OCC24C(CC(=O)OC14)C(C)C3O (centres undefined)
yes (1)

I would be grateful if you could indicate the recorded call for O=C(OCC1=CC(=O)c2ccccc2C1=O)c1ccccc1 .
no (0)

What did this assay record as the result for COc1ccc2c(c1)[n+](=O)c(/C=C/C(=O)c1cc(OC)c(OC)c(OC)c1)c(C)n2[O-] ?
no (0)

Recorded test outcome, item COc1ccc(C2=NNC(c3sc(Cl)nc3Cl)C2)cc1 (centres undefined)
no (0)
